# IC50 per entry
Target: Cbl-b (Homo sapiens, UniProt Q13191)
Sequence (Q13191 36-427): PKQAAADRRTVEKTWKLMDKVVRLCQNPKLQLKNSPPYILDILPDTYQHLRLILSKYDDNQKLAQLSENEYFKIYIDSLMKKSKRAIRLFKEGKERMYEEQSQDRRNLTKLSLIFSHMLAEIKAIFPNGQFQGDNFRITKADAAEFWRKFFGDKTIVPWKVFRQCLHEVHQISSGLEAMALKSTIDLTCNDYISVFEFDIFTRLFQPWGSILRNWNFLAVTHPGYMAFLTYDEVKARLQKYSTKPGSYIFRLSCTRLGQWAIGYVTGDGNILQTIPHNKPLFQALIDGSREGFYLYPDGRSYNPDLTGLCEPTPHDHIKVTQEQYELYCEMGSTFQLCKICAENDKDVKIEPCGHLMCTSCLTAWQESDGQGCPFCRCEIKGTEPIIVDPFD
Assay: Cbl-b activity assay (Cbl-b inhibition assay), TR-FRET of Cbl-b interaction with UbcH5B-Ub
Type: biochemical
Conditions: assay buffer with 100 mM NaCl, 60 nM Src kinase; read-out: Cbl-b activity IC50
Measured Property: IC50

• C[C@H](Cc1nncn1C)c1cccc(N2Cc3c(cc([C@@H]4CCCNC4)cc3C(F)(F)F)C2=O)c1 [Compound 382] = 100 to 300 nM
• CC(=O)N1CCN(c2ccc3cnc(C(=O)Nc4cccc([C@H](C)Cc5nncn5C)c4)cc3c2)CC1 [Compound 211, 2,2,2-trifluoroacetate] = < 100 nM
• C[C@H](Cc1nncn1C)c1cccc(NC(=O)c2nc3c(C4CC4)cccc3[nH]2)c1 [Compound 319] = 100 to 300 nM
• C[C@H](Cc1nncn1C)c1cccc(NC(=O)c2cc(N[C@H]3CC[C@@H](O)C3)ccn2)c1 [Compound 208] = 301 to 1000 nM
• CCOc1cc(N2Cc3c(cc(CN4CC[C@H](F)C4)cc3C(F)(F)F)C2=O)cc(C2(Cc3nncn3C)COC2)c1 [Compound 468] = < 100 nM
• Cc1conc1C[C@@H](C)c1cccc(NC(=O)c2ccnc(C(F)(F)F)n2)c1 [Compound 213a] = 100 to 300 nM
• Cn1cnnc1[C@@H](F)C1(c2cccc(N3Cc4c(cc(CN5CCCCC5)cc4C(F)(F)F)C3=O)c2)COC1 [Example 674a] = < 100 nM
• CNCc1ccc(C(=O)Nc2cccc([C@H](C)Cc3nncn3C)c2)nc1C1CC1 [Compound 376] = 100 to 300 nM
• Cn1cnnc1CC1(c2cccc(N3Cc4c(cc(CN5CC[C@@H](F)[C@H](F)C5)cc4C(F)(F)F)C3=O)c2)COC1 [Example 626b] = < 100 nM
• CC(O)c1cc2c(c(C(F)(F)F)c1)CN(c1cccc(C3(Cc4nncn4C)COC3)c1)C2=O (stereo not drawn) [Compound 540] = < 100 nM
• CN1C[C@@H]2C[C@H]1CN2c1cc2c(c(C(F)(F)F)c1)CN(c1cccc([C@@](C)(F)C(F)(F)c3nncn3C)c1)C2=O [Example 563] = < 100 nM
• Cc1cc(C(=O)Nc2cccc(C3(Cc4nncn4C)COC3)c2)n2ncc(C)c2n1 [Example 606] = < 100 nM
• C[C@H](Sc1nncn1C)c1ccnc(NC(=O)c2csc(C(F)(F)F)n2)c1 [Compound 118] = 1000 to 3000 nM
• C[C@@H]1CN(C)CCN1c1cc2c(c(C(F)(F)F)c1)CN(c1cccc(C3(Cc4nncn4C)COC3)c1)C2=O [Compound 390] = < 100 nM
• Cn1cnnc1[C@@H]1CC[C@@H]1c1cccc(N2Cc3c(cccc3C(F)(F)F)C2=O)c1 [Compound 283b] = 301 to 1000 nM

src = patent US20220324835A1
